- System: MOLM14 cells
- procedure.text: Proliferation assay, spheroid-like growth, MOLM14 (MLL-AF9 rearranged)
- Format: cell-based, human
- study.conditions: Homo sapiens, MOLM-14, 192 h, 8 days, confluence as measure of spheroid size, read-out: spheroid assay_OneTime MOLM14 IC50
pIC50: −log10 of the molar value.
measured.parameter: pIC50

Example entries and their recorded answers appear below.
>>> observed_measurement("CC(C)[C@H]([C@H]1C[C@@H](N2CC[C@@H](C(C)(C)O)C2)C1)N1CC2(CCN(c3ncnnc3Oc3ccc(F)cc3-c3cncnc3C3CC3)C2)C1 (single isomer, unassigned)")
8.40
>>> observed_measurement("CC(C)[C@H]([C@H]1C[C@H](N2CC3(CCO3)C2)C1)N1CC2(CCN(c3ncnnc3Oc3ccc(F)cc3-c3cncnc3C3CC3)C2)C1 (single isomer, unassigned)")
6.80
>>> observed_measurement("CNC(=O)c1coc(N[C@H]2C[C@@H](C(C(C)C)N3CC4(CCN(c5ncnnc5Oc5ccc(F)cc5-c5cncnc5C5CC5)C4)C3)C2)n1 (single isomer, unassigned)")
8.40
>>> observed_measurement("COC1(C)CCN([C@H]2C[C@@H]([C@H](C(C)C)N3CC4(CCN(c5ncnnc5Oc5ccc(F)cc5-c5nnccc5C5CC5)C4)C3)C2)C1 (mixture of isomers)")
8.15
>>> observed_measurement("CC(C)[C@H]([C@H]1C[C@@H](N2CC3(CCOC3)C2)C1)N1CC2(CCN(c3ncnnc3Oc3ccc(F)cc3-c3cncnc3C3CC3)C2)C1 (single isomer, unassigned)")
8.05
>>> observed_measurement("COC1(C)CN([C@H]2C[C@@H]([C@H](C(C)C)N3CC4(CCN(c5ncnnc5Oc5ccc(F)cc5-c5nnccc5C5CC5)C4)C3)C2)C1 (single isomer, unassigned)")
8.05
>>> observed_measurement("CC(C)[C@H]([C@H]1C[C@@H](Nc2ncnc3[nH]ncc23)C1)N1CC2(CCN(c3ncnnc3Oc3ccc(F)cc3-c3cncnc3C3CC3)C2)C1 (single isomer, unassigned)")
7.59

P: CC(C)[C@@H]([C@H]1C[C@@H](N(C)C)C1)N1CC2(CCN(c3ncnnc3Oc3ccc(F)cc3-c3ncccc3C3CC3)C2)C1 (single isomer, unassigned)
Q: CC(C)C([C@H]1C[C@@H](NC(=O)C2CC2)C1)N1CC2(CCN(c3ncnnc3Oc3ccc(F)cc3-c3cccc(=O)n3C3CC3)C2)C1 (stereo partly shown)
R: CCC(=O)N[C@H]1C[C@@H]([C@@H](C(C)C)N2CC3(CCN(c4ncnnc4Oc4ccc(F)cc4-c4cncnc4C4CC4)C3)C2)C1 (single isomer, unassigned)
**Query** Hey, quick one: sort these by pIC50, largest value first please. Returns: the labels arranged in the requested order.
**Result** R, Q, P

* * *

- Test system: KO-52 cells
- procedure.text: Proliferation assay, spheroid-like growth, KO-52 (MLL wildtype control cell line)
- Type: cell-based, human
- study.conditions: Homo sapiens, 192 h, KO-52 control cells, 8 days, confluence as measure of spheroid size; read-out: spheroid assay_OneTime KO-52 IC50
measured.parameter: pIC50
The meaning of pIC50 here: minus log10 of the concentration in molar units.

>>> observed_measurement("CC(C)[C@H]([C@H]1C[C@@H](N2CC3(COC3)C2)C1)N1CC2(CCN(c3ncnnc3Oc3ccc(F)cc3-c3ncccc3C3CC3)C2)C1 (single isomer, unassigned) [Compound 151]")
5.69
>>> observed_measurement("CC(C)[C@H]([C@H]1C[C@@H](N(C)CCCS(C)(=O)=O)C1)N1CC2(CCN(c3ncnnc3Oc3ccc(F)cc3-c3cncnc3C3CC3)C2)C1 (single isomer, unassigned) [Compound 242]")
4.92
>>> observed_measurement("CC(C)[C@H]([C@H]1C[C@@H](N2C[C@H]3COC[C@H]3C2)C1)N1CC2(CCN(c3ncnnc3Oc3ccc(F)cc3-c3cncnc3C3CC3)C2)C1 (single isomer, unassigned) [Compound 14]")
5.68

**Query** Consider the molecule CC(C)C([C@H]1C[C@H](N2C[C@H]3COC[C@H]3C2)C1)N1CC2(CCN(c3ncnnc3Oc3ccc(F)cc3-c3cnccc3C3CC3)C2)C1 (stereo partly drawn) [Compound 139] . State its measured pIC50.
**Result** 5.88

**Query** Report pIC50 for CC(C)[C@@H]([C@H]1C[C@H](N2C[C@H]3COC[C@H]3C2)C1)N1CC2(CCN(c3ncnnc3Oc3ccc(F)cc3-c3cnncc3C3CC3)C2)C1 (single isomer, unassigned) [Compound 279]
**Result** 5.22

**Query** Name the recorded pIC50 of the item CC(C)[C@H]([C@H]1C[C@H](N2CCCCC2)C1)N1CC2(CCN(c3ncnnc3Oc3ccc(F)cc3-c3cncnc3C3CC3)C2)C1 (single isomer, unassigned) [Compound 49] in your answer.
**Result** 5.67

**Query** Please look at this molecule and report its pIC50: CC(C)[C@@H]([C@H]1C[C@@H](N(C)C)C1)N1CC2(CCN(c3ncnnc3Oc3ccc(F)cc3-c3ncccc3C3CC3)C2)C1 (single isomer, unassigned) [Compound 153]
**Result** 5.32

**Query** Using known records, supply pIC50 for CC(C)[C@H](C1CCN(CC2COC2)CC1)N1CC2(CCN(c3ncnnc3Oc3ccc(F)cc3-c3cnc(C#N)nc3C3CC3)C2)C1 (single isomer, unassigned) [Compound 333]
**Result** 6.09

Reference source: patent US20240417405A1
